Each entry below lists one item and its recorded OD450 value.
target: BSA (UniProt P02769); experiment: scFv ELISA
Sequence (P02769 25-607 limits assumed): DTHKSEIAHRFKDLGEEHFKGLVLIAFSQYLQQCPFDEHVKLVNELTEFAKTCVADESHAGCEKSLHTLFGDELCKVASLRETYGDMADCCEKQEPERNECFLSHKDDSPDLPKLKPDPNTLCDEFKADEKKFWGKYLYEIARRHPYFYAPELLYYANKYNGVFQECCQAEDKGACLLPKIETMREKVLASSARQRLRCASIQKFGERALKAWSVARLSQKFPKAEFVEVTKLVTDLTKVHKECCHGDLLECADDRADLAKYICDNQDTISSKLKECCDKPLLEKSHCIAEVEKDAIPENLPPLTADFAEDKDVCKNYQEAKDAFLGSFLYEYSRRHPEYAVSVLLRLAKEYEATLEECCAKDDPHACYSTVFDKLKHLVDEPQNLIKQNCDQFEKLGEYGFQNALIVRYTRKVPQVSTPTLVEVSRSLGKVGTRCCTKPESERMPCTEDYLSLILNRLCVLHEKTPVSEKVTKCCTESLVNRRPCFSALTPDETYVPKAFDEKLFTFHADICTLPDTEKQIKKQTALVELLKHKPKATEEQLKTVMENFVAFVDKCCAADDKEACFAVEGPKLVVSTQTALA
Reply numerically in OD450, unit not repeated.

Solved cases (2 shown):
BINDER | QUANTITY NAME | NUMERIC VALUE
PcOxP_DB04_B11 (scFv, V domains shown, scFv in periplasmic extract) VH: EVQLLESGGGLVQPGGSLRLSCAASGDTFSDFYMEWVRQAPGKGLEWVAASRWKANDYTTEYADSVKGRFTISRDNSKNTLYLQMNSLRAEDTAVYYCARDYYGSSYWYFDVWGQGTLVTVSS VL: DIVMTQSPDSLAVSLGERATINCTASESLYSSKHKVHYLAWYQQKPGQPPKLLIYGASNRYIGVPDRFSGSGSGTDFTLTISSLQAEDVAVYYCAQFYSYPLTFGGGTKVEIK | OD450 | 0.08
PcOxP_DB02_H03 (scFv, V domains shown, scFv in periplasmic extract) VH: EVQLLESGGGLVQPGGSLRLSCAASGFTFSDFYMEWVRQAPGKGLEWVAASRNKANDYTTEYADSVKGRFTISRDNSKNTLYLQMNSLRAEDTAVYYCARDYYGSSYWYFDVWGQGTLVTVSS VL: DIQMTQSPSSLSASVGDRVTITCTASESISSSKHKVHYLAWYQQKPGKAPKLLIYGASNLYSGVPSRFSGSGSGTDFTLTISSLQPEDFATYYCAHFYSYPLTFGGGTKVEIK | OD450 | 0.08

Field: next binder
binder PcOxP_DB01_F08 (scFv, V domains shown, scFv in periplasmic extract) VH: EVQLLESGGGLVQPGGSLRLSCAASGFTFSDGYMEWVRQAPGKGLEWVAASRNKWNDYTTEYADSVKGRFTISRDNSKNTLYLQMNSLRAEDTAVYYCARDYYGSSYWYFDVWGQGTLVTVSS VL: DIVMTQSPDSLAVSLGERATINCTASESLYSSKHKVHYLAWYQQKPGQPPKLLIYGASNRYSGVPDRFSGSGSGTDFTLTISSLQAEDVAVYYCAQFYSYPLTFGGGTKVEIK , OD450 observed: 0.06
